METHOD_DESCRIPTION: Growth inhibition of human HEK293T cells at 10 uM after 24 hrs by MTS assay relative to control
Type: cell-based, HEK-293T
CONDITION_INFO: HEK293T cells, read-out: GI
The label depends only on inhibition at 24 h, 10 µM: 1 (yes) if it is at least 10%, 0 (no) if it is smaller.

Past entries and their recorded results:
| SMI | CLASS |
| --- | --- |
| C=CC(C)(C)c1cc(/C=C/C(=O)c2ccc(O)cc2)c(OC)c(O)c1O | 1 (yes) |
| CC(C)=CCc1cc([C@@H]2CC(=O)c3ccc(O)c(CC=C(C)C)c3O2)ccc1O | 1 (yes) |
| CC(C)=CCc1cc(-c2cc(=O)c3c(O)c(CC=C(C)C)c(O)cc3o2)ccc1O | 0 (no) |
| CC1(C)C=Cc2c(ccc3c2OC[C@@H](c2ccc(O)cc2O)C3)O1 | 0 (no) |

Continue with the molecule presented below.
Query block: Could you tell me if the measured inhibition at 24 h, 10 µM of CC1(C)C=Cc2cc(/C=C/C(=O)c3ccc(O)cc3O)ccc2O1 reaches 10% or more?
Result block: 0 (no)

====

System: RAW264.7
METHOD_DESCRIPTION: Antiinflammatory activity in mouse RAW264.7 cells assessed as inhibition of LPS-induced NO production at 10 uM after 24 hrs by Griess reagent based assay relative to control
Assay type: functional
CONDITION_INFO: RAW264.7, 24 h
PARAMETER_MEASURED: inhibition at 10 µM
Kindly format the answer as number then unit.

Previously resolved entries follow.
| SMI | PARAMETER_MEASURED | RESULT |
| --- | --- | --- |
| CC(C)=CCc1c(O)ccc2c1O[C@H](c1ccc3c(c1)C=CC(C)(C)O3)CC2=O | inhibition at 10 µM | 24% |
| C=CC(C)(C)c1cc(/C=C/C(=O)c2ccc(O)cc2)c(OC)c(O)c1O | inhibition at 10 µM | 50% |

Recorded inhibition at 10 µM (molecule COc1cc(O)ccc1/C=C/C(=O)c1ccc(O)cc1 ): 26%

Recorded inhibition at 10 µM (molecule O=C1C[C@@H](c2cc(O)cc(O)c2)Oc2cc(O)ccc21 ): 15%

====

MEASURED_ON: Mushroom tyrosinase (Agaricus bisporus) (UniProt O42713+Q00024+C7FF04+C7FF05)
METHOD_DESCRIPTION: Inhibition of mushroom tyrosinase at 10 uM using L-tyrosine as substrate incubated for 15 mins followed by substrate addition relative to control
Listing: inhibition of selected compounds
Report the value in % with no unit label.

Previously resolved entries follow.
| SMI | MEASURED_ON | UNITS_OF_MEASURE | NUMERIC_READOUT |
| --- | --- | --- | --- |
| CC(C)=CCc1c(O)cc2occ(-c3ccc4c(c3O)C=CC(C)(C)O4)c(=O)c2c1O | Mushroom tyrosinase (Agaricus bisporus) (UniProt O42713+Q00024+C7FF04+C7FF05) | % | 7 |
| CC(C)=CCc1cc(/C=C/C(=O)c2ccc(O)c(CC=C(C)C)c2O)ccc1O | Mushroom tyrosinase (Agaricus bisporus) (UniProt O42713+Q00024+C7FF04+C7FF05) | % | 0 |
| CC(C)=CCc1c(O)ccc2c1O[C@H](c1ccc3c(c1)C=CC(C)(C)O3)CC2=O | Mushroom tyrosinase (Agaricus bisporus) (UniProt O42713+Q00024+C7FF04+C7FF05) | % | 15 |
| CC(C)=CCc1cc([C@@H]2CC(=O)c3c(cc(O)c(CC=C(C)C)c3O)O2)ccc1O | Mushroom tyrosinase (Agaricus bisporus) (UniProt O42713+Q00024+C7FF04+C7FF05) | % | 5 |
| COc1ccc(-c2coc3cc(O)ccc3c2=O)c(O)c1 | Mushroom tyrosinase (Agaricus bisporus) (UniProt O42713+Q00024+C7FF04+C7FF05) | % | 11 |
| C=CC(C)(C)c1cc(/C=C/C(=O)c2ccc(O)cc2)c(OC)cc1O | Mushroom tyrosinase (Agaricus bisporus) (UniProt O42713+Q00024+C7FF04+C7FF05) | % | 1 |
| C=CC(C)(C)c1cc(/C=C/C(=O)c2ccc(O)cc2)c(OC)c(O)c1O | Mushroom tyrosinase (Agaricus bisporus) (UniProt O42713+Q00024+C7FF04+C7FF05) | % | 12 |
| CC(C)=CCc1c(O)cc(O)c2c(=O)cc(-c3ccc(O)cc3)oc12 | Mushroom tyrosinase (Agaricus bisporus) (UniProt O42713+Q00024+C7FF04+C7FF05) | % | 2 |

Recorded inhibition (compound CC(C)=CCc1c(O)cc(O)c2c(=O)c(-c3ccc(O)cc3O)coc12 ): 17

====

Listing: inhibition of selected compounds
MEASURED_ON: Tyrosine-protein phosphatase non-receptor type 1 (Homo sapiens) (UniProt P18031)
Sequence (whole entry): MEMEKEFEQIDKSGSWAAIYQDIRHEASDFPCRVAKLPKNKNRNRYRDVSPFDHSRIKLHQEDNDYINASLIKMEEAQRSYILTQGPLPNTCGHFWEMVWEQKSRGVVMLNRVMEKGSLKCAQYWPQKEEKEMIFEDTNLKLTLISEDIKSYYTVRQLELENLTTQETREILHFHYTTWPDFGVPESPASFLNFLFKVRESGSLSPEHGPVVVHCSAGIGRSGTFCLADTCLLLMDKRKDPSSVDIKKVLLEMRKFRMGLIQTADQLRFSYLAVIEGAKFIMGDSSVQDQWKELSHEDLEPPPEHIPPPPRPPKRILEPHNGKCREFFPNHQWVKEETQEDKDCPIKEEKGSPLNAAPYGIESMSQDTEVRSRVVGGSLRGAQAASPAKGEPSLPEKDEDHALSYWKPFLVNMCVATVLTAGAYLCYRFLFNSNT
METHOD_DESCRIPTION: Inhibition of recombinant human PTP1B using p-nitrophenyl phosphate as substrate at 10 uM after 30 mins relative to control
Report the value in % with no unit label.

Recorded inhibition (compound CC(C)=CCc1cc([C@@H]2CC(=O)c3ccc(O)c(CC=C(C)C)c3O2)ccc1O [GLABROL] ): 92

Recorded inhibition (compound COc1ccc(-c2coc3c(O)c(O)c(CC=C(C)C)cc3c2=O)cc1 ): 74

Recorded inhibition (compound CC(C)=CCc1c(O)ccc(-c2coc3c(CC=C(C)C)c(O)cc(O)c3c2=O)c1O ): 96

====

Listing: inhibition at 10 µM of selected compounds
Test system: RAW264.7
METHOD_DESCRIPTION: Antiinflammatory activity in mouse RAW264.7 cells assessed as inhibition of LPS-induced NO production at 10 uM after 24 hrs by Griess reagent based assay relative to control
Format: functional
CONDITION_INFO: RAW264.7, 24 h
Report the value in % with no unit label.

Previously resolved entries follow.
| COMPOUND | inhibition at 10 µM [%] |
| --- | --- |
| CC(C)=CCc1cc(/C=C/C(=O)c2ccc(O)cc2O)ccc1O [LICOAGROCHALCONE A] | 16 |
| COc1ccc2c(c1)OC[C@H]1c3ccc(O)cc3O[C@@H]21 | 3 |
| CC(C)=CCc1cc(-c2coc3cc(O)cc(O)c3c2=O)cc(O)c1O [GLYCYRRHISOFLAVONE] | 3 |
| CC(C)=CCc1c(O)ccc(C(=O)/C=C/c2ccc(O)c(O)c2)c1O | 11 |
| CC(C)=CCc1c(O)ccc2c1oc1c3ccc(O)cc3oc(=O)c21 [ISOSOJAGOL] | 15 |
| CC1(C)C=Cc2c(ccc(-c3coc4cc(O)ccc4c3=O)c2O)O1 [GLABRONE] | 5 |

Measured inhibition at 10 µM for this entry CC1(C)[C@@H](OC=O)CC[C@]2(C)[C@H]3C(=O)C=C4[C@@H]5C[C@@](C)(C(=O)O)CC[C@]5(C)CC[C@@]4(C)[C@]3(C)CC[C@@H]12 on RAW264.7: 2

Measured inhibition at 10 µM for this entry CC1(C)C=Cc2c(O)ccc([C@@H]3COc4cc(O)cc(O)c4C3=O)c2O1 on RAW264.7: 2

Measured inhibition at 10 µM for this entry COc1ccc(-c2coc3cc(O)ccc3c2=O)cc1 [FORMONONETIN] on RAW264.7: 0

Measured inhibition at 10 µM for this entry CC(C)=CCc1c(O)ccc(-c2coc3cc(O)ccc3c2=O)c1O on RAW264.7: 25

Measured inhibition at 10 µM for this entry CC(C)=CCc1c(O)ccc(C(=O)/C=C/c2ccc(O)cc2)c1O [ISOBAVACHALCONE] on RAW264.7: 0

Measured inhibition at 10 µM for this entry O=c1cc(-c2ccc(O)cc2)oc2cc(O)ccc12 on RAW264.7: 5

Measured inhibition at 10 µM for this entry CC1(C)C=Cc2c(ccc3c2OC[C@@H](c2ccc(O)cc2O)C3)O1 [GLABRIDIN] on RAW264.7: 7

Measured inhibition at 10 µM for this entry COc1ccc(-c2coc3c(O)c(O)c(CC=C(C)C)cc3c2=O)cc1 on RAW264.7: 17

Measured inhibition at 10 µM for this entry CC(C)=CCc1c(O)ccc(-c2coc3cc(O)c(CC=C(C)C)c(O)c3c2=O)c1O on RAW264.7: 0

Measured inhibition at 10 µM for this entry CC1(C)C(=O)CC[C@]2(C)[C@H]3C(=O)C=C4[C@@H]5C[C@@](C)(C(=O)O)CC[C@]5(C)CC[C@@]4(C)[C@]3(C)[C@@H](O)C[C@@H]12 on RAW264.7: 6
